# procedure_details: qHTS assay to identify small molecule antagonists of the farnesoid-X-receptor (FXR) signaling pathway - cell viability counter screen (AID 743221); further: nearly all actives have a fitted effect of over 50% in size; further: potency means the concentration at half of the fitted maximal effect
# conditions_used: FXR-bla HEK293T viability, CellTiter-Glo luminescence, 16 h; series mostly up to 62.6 µM
# From the text: National Center for Advancing Translational Sciences [NCATS] NIH Chemical Genomics Center [NCGC] U.S. Environmental Protection Agency [EPA] National Institutes of Environmental Health Sciences [NIEHS] National Toxicology Program [NTP] U.S. Food and Drug Administration [FDA] The farnesoid-X-receptor (FXR), a nuclear hormone receptor, is highly expressed in liver, intestine, kidney and adrenal cortex. Natural ligands of FXR are the bile acids (Cholic acid, Chenodeoxy cholic acid etc). […]
Records with an inconclusive call do not appear. Activity calls are given as the source filed them. The call rests on the fitted dose curve; in most records, active means well fitted cell-killing curve with a large enough effect in the repeat runs (not every such curve was filed as active); inconclusive means weak or mixed curves, or effect the other way; inactive means no such curve, though single readings can be large or run the other way.
measured_attribute: Potency

[[record]]
mol = "COCCCCCCCCOCCC[Si](C)(O[Si](C)(C)C)O[Si](C)(C)C"
measured_attribute = "Potency"
assay_value = "inactive"

[[record]]
mol = "Cc1occc1S"
measured_attribute = "Potency"
assay_value = "inactive"

[[record]]
mol = "CCCCCCCCCO"
measured_attribute = "Potency"
assay_value = "inactive"

[[record]]
mol = "CCN(CC)CCOc1ccc2c(c1)C(=O)c1cc(OCCN(CC)CC)ccc1-2"
measured_attribute = "Potency"
assay_value = "26.6 µM (active)"

[[record]]
mol = "Cc1cc(NC(=O)C(=O)O)cc(C)c1Oc1ccc(O)c2c1CCC2"
measured_attribute = "Potency"
assay_value = "inactive"

[[record]]
mol = "CCCCCOC(=O)COc1cc(N2C(=O)C3=C(CCCC3)C2=O)c(F)cc1Cl"
measured_attribute = "Potency"
assay_value = "inactive"

[[record]]
mol = "N#CCCNCCC#N"
measured_attribute = "Potency"
assay_value = "inactive"

